Values from patent US20240109853A1

Target: hALPK1-V1092A (Homo sapiens (Human), UniProt Q96QP1, V1092A)
Sequence (Q96QP1 whole entry V1092A): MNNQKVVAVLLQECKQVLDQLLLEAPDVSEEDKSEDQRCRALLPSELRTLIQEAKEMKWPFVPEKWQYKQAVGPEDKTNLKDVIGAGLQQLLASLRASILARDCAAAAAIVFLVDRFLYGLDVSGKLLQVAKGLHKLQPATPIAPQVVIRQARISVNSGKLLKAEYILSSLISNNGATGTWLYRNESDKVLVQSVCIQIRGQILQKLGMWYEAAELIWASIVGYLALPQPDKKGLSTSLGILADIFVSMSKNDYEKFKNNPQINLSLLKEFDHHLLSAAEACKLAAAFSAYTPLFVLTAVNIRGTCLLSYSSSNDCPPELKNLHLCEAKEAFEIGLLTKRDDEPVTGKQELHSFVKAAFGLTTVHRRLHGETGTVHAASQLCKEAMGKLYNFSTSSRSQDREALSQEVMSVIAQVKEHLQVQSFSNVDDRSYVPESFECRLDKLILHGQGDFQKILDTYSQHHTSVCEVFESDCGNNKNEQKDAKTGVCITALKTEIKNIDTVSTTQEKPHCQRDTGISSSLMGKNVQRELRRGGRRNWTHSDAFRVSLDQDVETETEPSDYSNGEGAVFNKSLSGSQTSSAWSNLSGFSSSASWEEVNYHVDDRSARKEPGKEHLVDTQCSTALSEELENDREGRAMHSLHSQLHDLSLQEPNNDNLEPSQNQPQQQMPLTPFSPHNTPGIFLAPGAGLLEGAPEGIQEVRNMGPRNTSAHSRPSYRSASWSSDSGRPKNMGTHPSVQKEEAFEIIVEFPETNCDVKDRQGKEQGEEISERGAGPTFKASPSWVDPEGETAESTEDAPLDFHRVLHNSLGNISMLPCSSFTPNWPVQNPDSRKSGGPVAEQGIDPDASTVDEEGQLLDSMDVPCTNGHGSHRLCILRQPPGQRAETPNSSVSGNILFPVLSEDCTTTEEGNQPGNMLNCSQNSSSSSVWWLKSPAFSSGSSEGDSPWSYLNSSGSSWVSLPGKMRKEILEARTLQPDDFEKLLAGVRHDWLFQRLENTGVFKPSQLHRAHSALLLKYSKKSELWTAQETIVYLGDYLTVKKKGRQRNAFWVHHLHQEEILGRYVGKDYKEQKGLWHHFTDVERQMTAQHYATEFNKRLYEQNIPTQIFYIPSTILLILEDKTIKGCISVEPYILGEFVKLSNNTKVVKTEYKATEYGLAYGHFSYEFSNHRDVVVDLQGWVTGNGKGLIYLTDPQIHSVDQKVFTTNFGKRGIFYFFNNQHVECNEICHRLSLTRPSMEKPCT
Test: cell-based
pIC50: −log10 of the molar value.
If the reported pIC50 equals or exceeds 5, assign 1. If not, assign -1.

COMPOUND	TARGET_OR_SYSTEM	CATEGORY
C#C[C@@](C)(c1ccc(Cl)cc1)c1csc(NC(=O)NC(C)CO)n1 (stereo in doubt) [Example A312]	hALPK1-V1092A (Homo sapiens (Human), UniProt Q96QP1, V1092A)	-1
C#C[C@](C)(c1ccc(Cl)cc1)c1csc(NC(=O)NCCO)n1	hALPK1-V1092A (Homo sapiens (Human), UniProt Q96QP1, V1092A)	1
C#C[C@@](C)(c1ccc(C)cc1)c1csc(NC(=O)c2c(F)cc(N3CCNCC3)cc2F)n1 (stereo in doubt)	hALPK1-V1092A (Homo sapiens (Human), UniProt Q96QP1, V1092A)	1
C#C[C@@](C)(c1ccc(OC)cc1)c1csc(NC(=O)c2c(F)cc(N3CCNCC3)cc2F)n1 (stereo in doubt)	hALPK1-V1092A (Homo sapiens (Human), UniProt Q96QP1, V1092A)	1
C#CC(C)(c1ccc(F)cc1)c1csc(NC(=O)c2c(F)cc(N3CCNCC3CO)cc2F)n1 (stereo not drawn)	hALPK1-V1092A (Homo sapiens (Human), UniProt Q96QP1, V1092A)	1
C#C[C@@](C)(c1ccc(Cl)cc1)c1csc(NC(=O)N2CC(c3ccc(N4CCNCC4)c(F)c3)C2)n1	hALPK1-V1092A (Homo sapiens (Human), UniProt Q96QP1, V1092A)	1
